Each record here notes measured inhibition.
target: 5-hydroxytryptamine receptor 5A (Homo sapiens) (UniProt P47898); test: HTR5A inverse agonists, retest of hits, confirmation, cell-based, luminescence (AID 504916); details: HTR5A-expressing cells, inverse agonism, at 9.3 µM, active compounds read high;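 further: 0% = cells with DMSO and 100% = no cells with DMSO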
Sequence (P47898 whole entry, looked up): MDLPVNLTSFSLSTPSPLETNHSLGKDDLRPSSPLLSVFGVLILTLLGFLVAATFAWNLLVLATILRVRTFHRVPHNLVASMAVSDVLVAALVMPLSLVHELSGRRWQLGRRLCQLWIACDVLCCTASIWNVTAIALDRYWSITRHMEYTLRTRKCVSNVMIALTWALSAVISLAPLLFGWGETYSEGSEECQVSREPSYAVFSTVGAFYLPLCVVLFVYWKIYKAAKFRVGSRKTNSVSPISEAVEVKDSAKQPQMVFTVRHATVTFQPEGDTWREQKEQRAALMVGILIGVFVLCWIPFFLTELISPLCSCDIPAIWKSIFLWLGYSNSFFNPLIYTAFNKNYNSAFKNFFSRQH
Some of the results follow. Active and inactive are the calls of the source. How the calls were made is not given here.

> print(dat)
                         chemical.smiles        data.value
1  Cc1noc(C)c1COc1cccc(C(=O)Nc2cccnc2)c1  4.42% (inactive)

Write down the reported inhibition of CCOC(=O)NC(=O)C(=CNc1cccc(OC)c1)C(=O)NC(=O)OCC , test system: 5-hydroxytryptamine receptor 5A (Homo sapiens) (UniProt P47898).
-98.8% (inactive)

Also Cc1cc(C)n(-c2ccc(Cl)c(C(=O)O)n2)n1 , if possible.
-6.82% (inactive)

Okay, and CCCCCCCCc1c(O)nc(-n2[nH]c(C)c(CCO)c2=O)[nH]c1=O ?
-15.1% (inactive)
